- experimental-target: Lysine-specific demethylase 4A (Homo sapiens, UniProt O75164)
- Sequence (O75164 whole entry): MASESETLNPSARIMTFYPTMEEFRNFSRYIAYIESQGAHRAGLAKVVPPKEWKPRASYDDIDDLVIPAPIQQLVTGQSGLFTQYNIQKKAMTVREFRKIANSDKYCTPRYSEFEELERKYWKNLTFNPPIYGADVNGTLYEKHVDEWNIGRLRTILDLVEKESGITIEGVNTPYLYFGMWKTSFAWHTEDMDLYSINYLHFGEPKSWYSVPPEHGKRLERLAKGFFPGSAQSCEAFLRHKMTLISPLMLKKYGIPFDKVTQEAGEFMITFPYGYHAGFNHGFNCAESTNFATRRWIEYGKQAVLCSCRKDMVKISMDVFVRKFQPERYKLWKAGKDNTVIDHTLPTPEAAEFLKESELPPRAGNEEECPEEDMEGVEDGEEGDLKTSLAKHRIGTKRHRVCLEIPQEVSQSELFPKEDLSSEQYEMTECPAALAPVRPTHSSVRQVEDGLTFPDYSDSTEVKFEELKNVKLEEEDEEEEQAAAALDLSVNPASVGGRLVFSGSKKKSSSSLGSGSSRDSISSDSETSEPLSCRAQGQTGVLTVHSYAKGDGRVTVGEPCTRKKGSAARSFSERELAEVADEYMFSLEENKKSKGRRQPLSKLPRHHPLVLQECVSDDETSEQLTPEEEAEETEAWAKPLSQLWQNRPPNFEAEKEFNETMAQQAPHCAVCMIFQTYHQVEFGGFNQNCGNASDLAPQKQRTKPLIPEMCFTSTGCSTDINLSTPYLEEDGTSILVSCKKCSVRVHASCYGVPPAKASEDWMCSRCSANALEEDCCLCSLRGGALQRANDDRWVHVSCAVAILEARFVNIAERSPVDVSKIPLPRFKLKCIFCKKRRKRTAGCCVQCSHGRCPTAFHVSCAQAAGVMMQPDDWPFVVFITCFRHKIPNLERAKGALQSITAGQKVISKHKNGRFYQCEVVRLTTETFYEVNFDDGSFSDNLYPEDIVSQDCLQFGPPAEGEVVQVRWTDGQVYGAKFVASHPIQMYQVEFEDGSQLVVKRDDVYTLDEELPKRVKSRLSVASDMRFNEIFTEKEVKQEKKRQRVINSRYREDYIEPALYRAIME
- experimental-protocol: Inhibition of human JmjD2a by Alphascreen assay

- sample-smiles: "O=C(O)CCNc1cc(N2CCc3ccccc3CC2)nc(-c2ccccn2)n1"
  measurement-unit: "µM"
  IC50: 44.3

----------
- experimental-target: Lysine-specific demethylase 4D (Homo sapiens, UniProt Q6B0I6)
- Sequence (Q6B0I6 whole entry): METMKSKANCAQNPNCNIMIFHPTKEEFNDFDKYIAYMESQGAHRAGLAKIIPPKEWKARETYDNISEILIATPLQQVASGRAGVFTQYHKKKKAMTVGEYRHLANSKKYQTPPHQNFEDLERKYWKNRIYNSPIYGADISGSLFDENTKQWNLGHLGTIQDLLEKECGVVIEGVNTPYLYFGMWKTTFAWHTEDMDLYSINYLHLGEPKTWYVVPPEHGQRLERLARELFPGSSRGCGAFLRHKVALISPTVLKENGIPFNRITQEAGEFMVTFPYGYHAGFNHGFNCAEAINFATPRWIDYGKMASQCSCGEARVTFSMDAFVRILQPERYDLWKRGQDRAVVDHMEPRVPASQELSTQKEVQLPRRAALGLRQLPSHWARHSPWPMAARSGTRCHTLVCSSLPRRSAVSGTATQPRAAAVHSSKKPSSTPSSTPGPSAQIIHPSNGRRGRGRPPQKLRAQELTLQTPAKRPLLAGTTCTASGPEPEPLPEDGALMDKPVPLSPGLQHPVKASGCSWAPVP
- experimental-protocol: Inhibition of human JmjD2d using H3K27(me3) as substrate preincubated for 10 mins followed by substrate addition and measured after 7 mins in presence of alpha-KG by RapidFire Mass Spectrometry

- sample-smiles: "O=C(O)CCNc1cc(N2CCc3ccccc3CC2)nc(-c2ccccn2)n1"
  experimental-target: "Lysine-specific demethylase 4D (Homo sapiens, UniProt Q6B0I6)"
  readout-relation: "="
  IC50 [µM]: 79
- sample-smiles: "O=C(O)CCNc1cc(N2CCc3ccccc3CC2)nc(-c2cccnc2)n1"
  experimental-target: "Lysine-specific demethylase 4D (Homo sapiens, UniProt Q6B0I6)"
  readout-relation: ">"
  IC50 [µM]: 100
